experiment: Oral bioavailability in rat; format: ADME, organism-based; conditions: in vivo
property: bioavailability (%)

>>> recordedmeasurement("COc1ccc(CN2C(=O)c3cccc(N4CCN([C@H](C)c5ccccc5)CC4)c3C2=O)cc1OC")
33

----------
target: Urotensin-2 receptor (Rattus norvegicus, UniProt P49684); experiment: Antagonist activity at rat urotensin 2 receptor expressed in CHOK1 cells assessed as inhibition of urotensin 2-induced intracellular calcium mobilization after 1 hr by FLIPR assay; assay type: functional, cell-based, CHO-K1
Sequence (P49684 whole entry): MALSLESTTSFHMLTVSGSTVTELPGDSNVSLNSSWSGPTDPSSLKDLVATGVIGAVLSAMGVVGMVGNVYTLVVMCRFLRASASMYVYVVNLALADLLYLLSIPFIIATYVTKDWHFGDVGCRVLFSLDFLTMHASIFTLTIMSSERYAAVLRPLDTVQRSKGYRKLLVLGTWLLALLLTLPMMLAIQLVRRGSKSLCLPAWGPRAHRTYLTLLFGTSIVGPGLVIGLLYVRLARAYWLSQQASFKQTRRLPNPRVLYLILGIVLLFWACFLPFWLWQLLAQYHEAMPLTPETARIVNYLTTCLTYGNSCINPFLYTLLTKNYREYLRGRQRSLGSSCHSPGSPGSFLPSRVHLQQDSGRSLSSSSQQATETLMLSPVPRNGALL
property: IC50 (µM)

>>> recordedmeasurement("CCN1CCN(c2cccc3c2CN([C@H](CCCNS(=O)(=O)c2cn(C)c(C)n2)c2ccc(OC)c(OC)c2)C3=O)CC1")
0.023

Every entry's value here was drawn from ChEMBL document CHEMBL1156039.
